Ref: the nanobody polyreactivity screen of Harvey et al. (2022)

- testMethodNotes: yeast display, Sf9 membrane polyspecificity reagent, FACS + sequencing; frameworks hold sequencing errors

constructSequence	polyreactivity (PSR sort gate)
QVQLVQSGGGLVHAGGSLRLSCAGSGSIFGTNAMGWYRQAPGKERELVATITSAGSTYYADSVKGRFTISRDYAKITFYLQMNSLKPEDTAVYYCARQATGYVYREYDYWGQGTQVSVSS	low polyreactivity
QVQLVESGGGLVQAGGILRLSCAASGRIFKTYAMGWYRQAPGKERELVAAITASGGRTYYADSVKGRFTISRDNAKNTVYLQMNSLKPEDTAVYYCAADSGNEYDYWGQGTQVTVSS	low polyreactivity
QVQLVESGGGLVQAGGSLRLSCAPSGIIFQFYAMGWYRQAPGKERELVAAISRSGGITHYADSVKGRFTISRDNAKNTVYLQMNSLKPEDTAVYYCAAVRQAYPRLDYWGQGTQVTVSS	high polyreactivity
QVQLVESAGGLVQAGGSLRLSCAASGYTISYANAMGWYRQAPGKERELVASISSTGGRTYYADSVKGRFTISRDNAKNTVYLQMNSLKPEDTAVYYCASRYWRYGYWGQGTQVTVSS	high polyreactivity
QVQLVESGGGLVQAGGSLRLSCAASGITFEGYAMGWYRQAPGKERELVAAITGSGSTTYYADSVKGRFTISRDNAKNTVYLQMNSLKPEDTAVYYCAADVSYKLYWGQGTQVTVSS	low polyreactivity
